The reported measurements were obtained from the MegaScale stability set (Tsuboyama et al. 2023).

B1: 1ZHC (parent)
chain: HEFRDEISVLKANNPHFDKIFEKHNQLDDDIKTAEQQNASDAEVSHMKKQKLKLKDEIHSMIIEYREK

Variants of: B1
measurement-description: folding stability dG (cDNA display proteolysis); higher = more stable
test-conditions: PBS, room temperature
Provide the reported folding stability dG of each item.
Answers are plain numbers, in kcal/mol.

INSERT INTO measurements (biopolymer_sequence, recorded_result) VALUES
  ('HEFRDEISVLKANNPHFDKIFEWHNQLDDDIKTAEQQNASDAEVSHMKKQKLKLKDEIHSMIIEYREK [K23W]', 1.28),
  ('HEFRDEISVLKANNPHFDKIFEKHNQLDDDIKTAEQQNASDAEVSHMKKQKLKLKDEIHSMIIDYREK [E64D]', 0.037),
  ('HEFRDEISVLKANNQHFDKIFEKHNQLDDDIKTAEQQNASDAEVSHMKKQKLKLKDEIHSMIIEYREK [P15Q]', 0.122),
  ('HEFRDEISVLKANNPDFDKIFEKHNQLDDDIKTAEQQNASDAEVSHMKKQKLKLKDEIHSMIIEYREK [H16D]', -0.361),
  ('HEFRDEISVLKANNPHFDKIFEKHNQLDDDIKTAEQQNASDAEVSHMKKQKLKLKDEIHMMIIEYREK [S60M]', 1.29),
  ('MEFRDEISVLKANNPHFDKIFEKHNQLDDDIKTAEQQNASDAEVSHMKKQKLKLKDEIHSMIIEYREK [H1M]', 1.11);

Go through the items and report each one's folding stability dG.
1. HEFRDEISVLKANNPHFDKIFEKHNQLDDDIKTAEQQNASDAEVSHMKKQKLKLKDEIHSMIIEHREK [Y65H]
2. HEFRDEISVLKANNPHFDKIFEKHMQLDDDIKTAEQQNASDAEVSHMKKQKLKLKDEIHSMIIEYREK [N25M]

1. 0.113
2. 0.989

Would you be so kind as to report folding stability dG for each listed record?
1. HEFRDEFSVLKANNPHFDKIFEKHNQLDDDIKTAEQQNASDAEVSHMKKQKLKLKDEIHSMIIEYREK [I7F]
2. HEFRDEISVLKANNPHFDKIFEKHNQLDDDIKTAEQQNASDEEVSHMKKQKLKLKDEIHSMIIEYREK [A42E]
3. HEFRDEISVLKANNPHFDKIFEKHNQLDDDIKTAEQQNASDAEVSHMKKQKLKLKDEIHSMIIMYREK [E64M]
4. HEFRDEISVLKANNPHFDKIFEKHNQLADDIKTAEQQNASDAEVSHMKKQKLKLKDEIHSMIIEYREK [D28A]
5. HEFRDEISVLKANNPHFDKIFEKHNQLDDYIKTAEQQNASDAEVSHMKKQKLKLKDEIHSMIIEYREK [D30Y]
6. HEFRDEISVLKANNPHFDKIFEKHNQLDDDIKTAEQQNASDAEVSHMKKQQLKLKDEIHSMIIEYREK [K51Q]

[0.109, 1.26, 0.766, 1.37, 0.857, 0.766]

Would you be so kind as to report folding stability dG for each listed record?
1. HEFRDEISVLRANNPHFDKIFEKHNQLDDDIKTAEQQNASDAEVSHMKKQKLKLKDEIHSMIIEYREK [K11R]
2. HEFRDEISVLKANNPHFDKIFEKHNQLDDDIKTAEQQNASDAEVSHMKKQKTKLKDEIHSMIIEYREK [L52T]

1. 1.96
2. 0.288

Please state folding stability dG for every variant in the list that follows.
1. HEFRDEISVLKANNPHFDKIFEKHFQLDDDIKTAEQQNASDAEVSHMKKQKLKLKDEIHSMIIEYREK [N25F]
2. EEFRDEISVLKANNPHFDKIFEKHNQLDDDIKTAEQQNASDAEVSHMKKQKLKLKDEIHSMIIEYREK [H1E]
3. HEFRDEISVLKANNPHFDKIFEKHNQLDDDIKTAEQQNASMAEVSHMKKQKLKLKDEIHSMIIEYREK [D41M]
4. HEFRDEISVLKANNPHFDKIFEKHNQLDDDIKTAEQQNASDAEVSHMKKQKLKLYDEIHSMIIEYREK [K55Y]

1. 0.65
2. 1.23
3. 0.722
4. 1.47

Fill in folding stability dG for each of the 2 variants listed.
1. HEFRDEINVLKANNPHFDKIFEKHNQLDDDIKTAEQQNASDAEVSHMKKQKLKLKDEIHSMIIEYREK [S8N]
2. KEFRDEISVLKANNPHFDKIFEKHNQLDDDIKTAEQQNASDAEVSHMKKQKLKLKDEIHSMIIEYREK [H1K]

0.922
0.855
